# measurement target: HIV-1 protease (Human immunodeficiency virus type 1 group M subtype B, UniProt P04585)
# Construct: 2.6 nM of HIV-1 protease
# procedure details: Assay for inhibitory effect on HIV protease (residual enzyme activity, HPLC of substrate cleavage)
# Format: biochemical
# stated conditions: HIV-1 protease 2.6 nM, pH 5.5; inhibition constant
In this section, each of the compounds is paired with its reported pKi.
Please keep in mind that pKi is minus log10 of the molar concentration; only the number is needed.

// below: answered compounds
* NC(=O)C[C@H](NC(=O)OCc1ccccc1)C(=O)N[C@@H](Cc1ccccc1)[C@H]1O[C@H]1CCc1ccccc1 | 7.00
* CC[C@H](C)[C@H](NC(=O)C[C@@H]1O[C@@H]1[C@H](Cc1ccccc1)NC(=O)[C@H](CC(N)=O)NC(=O)c1ccc2ccccc2n1)C(=O)N[C@H](C(=O)OC)C(C)C | 6.38

Prompt: Suppose we examine the compound CC(C)[C@H](NC(=O)C[C@@H]1O[C@@H]1[C@H](Cc1ccccc1)NC(=O)[C@H](CC(N)=O)NC(=O)c1ccc2ccccc2n1)C(N)=O ; what pKi value has been reported?
Completion: 8.30

Prompt: Data request, read-out pKi, for CC(C)[C@@H](CCc1ccccc1)NC(=O)C[C@@H]1O[C@@H]1[C@H](Cc1ccccc1)NC(=O)[C@H](CC(N)=O)NC(=O)c1ccc2ccccc2n1
Completion: 6.10
